tested on: U2OS; test: Multiplex assay against U2OS; format: toxicity, cell-based; settings: human, 12 h, 10 µM, compound concentration 10 uM, replicate 1
Catalogue of Population Pyknosed Nuclei (%) readings, one per entry.
Write the answer as a number in %, unit excluded.

Form field Population Pyknosed Nuclei (%), entry "CN1CCN(CCOc2cc(OC3CCOCC3)c3c(Nc4c(Cl)ccc5c4OCO5)ncnc3c2)CC1" : 26

Form field Population Pyknosed Nuclei (%), entry Cl.N#Cc1ccc2[nH]cc(CCCCN3CCN(c4ccc5oc(C(N)=O)cc5c4)CC3)c2c1 [VILAZODONE HYDROCHLORIDE] : 58

Form field Population Pyknosed Nuclei (%), entry C[C@@H](NCCCc1cccc(C(F)(F)F)c1)c1cccc2ccccc12.Cl [CINACALCET HYDROCHLORIDE] : 24

Form field Population Pyknosed Nuclei (%), entry "CC[C@H](C)C(=O)O[C@H]1C[C@@H](C)C=C2C=C[C@H](C)[C@H](CC[C@@H]3C[C@@H](O)CC(=O)O3)[C@H]21" : 11

Form field Population Pyknosed Nuclei (%), entry O=C1NCN(c2ccccc2)C12CCN(CCCOc1ccc(F)cc1)CC2 [SPIRAMIDE] : 31

====

test system: U2OS; assay: Multiplex assay against U2OS; type: toxicity, cell-based; settings: human, 24 h, 10 µM, compound concentration 10 uM, replicate 2
metric: Population Apoptotic (%)
Answer with the number, then the unit.

In the examples that follow, each entry is paired with its recorded Population Apoptotic (%).
- CN1CCCC(n2nc(Cc3ccc(Cl)cc3)c3ccccc3c2=O)CC1.Cl (stereo not drawn) [AZELASTINE HYDROCHLORIDE]: 95%
- Cc1[nH]c(/C=C2\C(=O)Nc3ccc(S(=O)(=O)N(C)c4cccc(Cl)c4)cc32)c(C)c1C(=O)N1CCN(C)CC1: 100%
- COc1cc2nccc(Oc3ccc(NC(=O)Nc4cc(C)on4)c(Cl)c3)c2cc1OC.O: 92%

Form field Population Apoptotic (%), entry "Cc1csc2c(N[C@@H](C)CN3CCN(S(=O)(=O)c4ccc(Cl)c(Cl)c4)CC3)ncnc12" : 80%

====

system: U2OS; test: Multiplex assay against U2OS; format: toxicity, cell-based; settings: human, 24 h, 1 µM, compound concentration 1 uM, replicate 1
# Population Membrane Permeable-Phenotype (%) >= 5% gives 1, anything below gives 0

Exam item: Does the reported Population Membrane Permeable-Phenotype (%) for "COc1cc(-n2cnc3cc(-c4ccc(Cl)cc4)sc3c2=O)ccc1OCCN1CCCC1" fall at or above the 5% mark?
Marked response: 1

Exam item: Does the reported Population Membrane Permeable-Phenotype (%) for Cc1nc(-c2cn3c(n2)-c2ccc(-c4cnn(C(C)(C)C(N)=O)c4)cc2OCC3)n(C(C)C)n1 [TASELISIB] fall at or above the 5% mark?
Marked response: 1

Exam item: Does the reported Population Membrane Permeable-Phenotype (%) for CN(C)C(=O)N[C@H]1CC[C@H](CCN2CCN(c3cccc(Cl)c3Cl)CC2)CC1.Cl [CARIPRAZINE HYDROCHLORIDE] fall at or above the 5% mark?
Marked response: 0

Exam item: Does the reported Population Membrane Permeable-Phenotype (%) for CC(C)NCC(O)COc1ccc(CCOCC2CC2)cc1.Cl (configuration not stated) [BETAXOLOL HYDROCHLORIDE] fall at or above the 5% mark?
Marked response: 0

Exam item: Does the reported Population Membrane Permeable-Phenotype (%) for "OC1(c2ccc(Cl)cc2)CCN(Cc2c[nH]c3ccccc23)CC1" fall at or above the 5% mark?
Marked response: 0

Exam item: Does the reported Population Membrane Permeable-Phenotype (%) for "CN(C)C(=O)/C(C#N)=C/c1ccc(-c2nc3cnc4[nH]ccc4c3n2C2CCCCC2)o1" fall at or above the 5% mark?
Marked response: 0

Exam item: Does the reported Population Membrane Permeable-Phenotype (%) for CCN(CC)CCCCNc1ncc2cc(-c3cc(OC)cc(OC)c3)c(NC(=O)NC(C)(C)C)nc2n1 [PD-173074] fall at or above the 5% mark?
Marked response: 1
